test: Fluorescence quantum yield vs Prodan in DMSO as reference; format: physicochemical; conditions: Toluene; excitation 334 nm, 10^-5 M
MEASURED_PROPERTY: QY (fluorescence quantum yield vs Prodan in DMSO (91%))

# MOLECULE, MEASURED_VALUE
measured = [
    ("CC(=O)c1c2c(cc3c(N(C)C)cccc13)CCC2", 47),
    ("CC(=O)c1c2c(cc3cc(N(C)C)ccc13)CCC2", 25),
    ("CCC(=O)c1ccc2cc(N(C)C)ccc2c1 [Prodan, reference compound]", 56),
    ("CC(=O)c1c2c(cc3ccc(N(C)C)cc13)CCC2", 62),
]

Attribution: patent US9896479B2
